Assay: NCI Yeast Anticancer Drug Screen. Data for the mgt1 strain (AID 153)
Conditions: S. cerevisiae mgt1 mutant growth inhibition; at 33.0 µM; active compounds read high
Procedure: Growth inhibition of yeast strains with defined genetic alterations is measured as a screen for potential anti-cancer activity. Selected strains with alterations in DNA damage repair or cell cycle control were exposed to compounds and growth inhibition was measured relative to vehicle treated controls. The strain used in this assay is mgt1
The panel holds about 79,000 compounds, 15% with a hit somewhere; the sample as a whole holds those more often.
Hi, to clarify the labels: t covers growth inhibition from 50% upward, f covers anything below 50%.

Before answering, review these 5 worked examples.
[Cl][Pt+2][Cl].[NH-]CC1(C[NH-])CCCCC1	t
O=c1c(Br)cc2c(-c3ccccc3)c3cc(Br)c(O)c(Br)c3oc-2c1Br	f
CC(C)(C(=O)NN)c1ccccc1	t
C#CC1=CC(=O)C(OC)=CC1=O	t
O=C(O)CN(CCNC(=O)OCC1c2ccccc2-c2ccccc21)CCNC(=O)OCC1c2ccccc2-c2ccccc21	t

Record "C=Cc1c(C)c(O)cc2c1-c1ccc(O)c(C)c1CC2" ; criterion: growth inhibition no lower than 50%. Met?
t

API: above_or_equal(metric=growth inhibition, cutoff=50%) for item CCCCCCCCCCCCOC1C(COCCN2CCCC2)OC2OC(C)(C)OC21 (configuration not stated)
t

Confirm if growth inhibition reported for the molecule "CCCCCC/C(C)=N/Nc1ccc([N+](=O)[O-])cc1[N+](=O)[O-]" is 50% or above.
f

---

assay: NCI Yeast Anticancer Drug Screen. Data for the rad50EPP+ strain (AID 151);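 note: 0% = growth of vehicle-treated control cultures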; details: S. cerevisiae rad50 mutant strain, at 11.0 µM, active compounds read high
Compounds without any hit were thinned out: in the full panel of roughly 79,000, 15% have a hit.
Outcome: condition met for growth inhibition of at least 40%; condition not met for anything lower.

CCC(C)C(=O)OCC(=O)c1ccc(-c2ccccc2)cc1 (stereo not given)	condition not met
O=[N+]([O-])c1cccc2nc3ccccc3c(NCCC[N+]3([O-])CCOCC3)c12	condition met
CCCC#CCOC(=O)c1cc([N+](=O)[O-])cc([N+](=O)[O-])c1	condition met
c1ccc2cc(OCC3CO3)c(OCC3CO3)cc2c1 (stereo not given)	condition not met

Answer whether growth inhibition of "CC[C@]1(O)C[C@H]2CN(CCc3c([nH]c4ccccc34)[C@@](C(=O)OC)(c3cc4c(cc3OC)N(C)[C@H]3[C@@](O)(C(=O)OC)[C@H](OC(C)=O)[C@]5(CC)C=CCN6CC[C@]43[C@@H]65)C2)C1" is greater than or equal to 40%.
condition not met

Kindly determine if growth inhibition recorded for "Cc1ccc(S(=O)(=O)N/N=C/c2c(O)ccc3ccccc23)cc1" is above or exactly 40%.
condition not met

Entry "O=Cc1ccccc1B(O)O" : is its growth inhibition no less than 40%?
condition met

Given the entry "Cc1cnccc1N=Nc1ccc(N(C)C)cc1" , answer whether its growth inhibition meets or surpasses 40%.
condition not met

Form field: growth inhibition at least 40%? Entry: "CN(Cc1cccc2ccccc12)Cc1cccc2ccccc12"
condition not met

---

experiment: NCI Yeast Anticancer Drug Screen. Data for the rad14 strain (AID 159);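 note: 0% = growth of vehicle-treated control cultures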; conditions: S. cerevisiae rad14 strain growth inhibition; at 100.0 µM
About 79,000 compounds went through this panel and 15% of them were active in at least one assay; those are over-represented in the sample as a whole. Active and inactive are the calls of the source. Rule as the data show it: active = growth inhibition above about 70%; inactive = the rest.
Respond using exactly one of the listed classes: y (active), n (inactive)

Recorded results for 5 compounds are shown here.
COc1cc(C(C)(C)C)cc(OC)c1C(O)(c1c(OC)cc(C(C)(C)C)cc1OC)c1c(OC)cc(C(C)(C)C)cc1OC	y
S=c1[nH]nc(Cc2ccccc2)c(=S)[nH]1	y
CN(C)c1ccc(C(c2ccc(Cl)cc2)c2ccc(N(C)C)cc2)cc1	y
CCc1nc2ccc(N=Nc3c(O)ccc4ccccc34)cc2[nH]1	y
O=c1[nH]c(=O)n(CCCO)cc1F	n

Which outcome was assigned to CCCCCCCCCCCCOC1C(COCCN2CCCC2)OC2OC(C)(C)OC21 (stereo unspecified) in this test?
y

Field: outcome | Entry: CCOC(=O)c1[nH]c2cccc3c2c1CC(Br)C3=O (stereo unspecified)
n

Called result for "c1cc(Nc2ccc3c(c2)OCO3)c2cc(C3CCCCC3)ccc2n1"
y

Please let me know the test result on file for "Cc1[nH]nc(C(F)(F)F)c1N=NN(C)C" .
y

// outcome(item) with item = c1ccc2cc(OCC3CO3)c(OCC3CO3)cc2c1 (stereo unspecified)
y

Any idea what this test logged for O=S(=O)(CCC[C@H]1[C@@H](CCOCc2ccccc2)C2CCCN1O2)c1ccccc1 (stereo partly specified) ?
n

---

Test: NCI Yeast Anticancer Drug Screen. Data for the mgt1 strain (AID 153)
Settings: S. cerevisiae mgt1 mutant growth inhibition; at 100.0 µM; active compounds read high
Description: Growth inhibition of yeast strains with defined genetic alterations is measured as a screen for potential anti-cancer activity. Selected strains with alterations in DNA damage repair or cell cycle control were exposed to compounds and growth inhibition was measured relative to vehicle treated controls. The strain used in this assay is mgt1
Compounds without any hit were thinned out: in the full panel of roughly 79,000, 15% have a hit.
Record Criterion met whenever growth inhibition is at 80% or higher; record Criterion not met when lower.

Solved entries:
Cc1cccc(N2CCN(C(=O)/C(=C/c3ccccc3)NC(=O)c3ccccc3)CC2)c1	Criterion not met
CCSc1c2ccccc2c(-c2nc(F)nc(F)n2)n1CCc1ccccc1	Criterion met
c1cncc(C(Nc2cccc3cccnc23)Nc2cccc3cccnc23)c1	Criterion not met

Decide: is the reported value of growth inhibition for O=C(O)NCC1CCCCC1 (tested in a mixture with another compound) equal to or greater than 80%?
Criterion not met

Hi team, for "O=C1c2ccccc2C(=O)C1C(c1ccc(F)cc1)C1C(=O)c2ccccc2C1=O" , is the recorded growth inhibition at or above 80%?
Criterion not met

For this compound, is measured growth inhibition 80% or higher? c1ccc(N/N=C2\CC(c3ccccc3)Oc3ccccc32)cc1 (stereo not given)
Criterion not met

// inclusive: growth inhibition at least 80%? input: CC1C=CN(N(C)C)C2=C1C(=O)c1cnccc1C2=O (stereo not given)
Criterion met

Textbook exercise: given the entry "O=[N+]([O-])C(=C(NCc1ccccc1)NCc1ccccc1)C(Cl)=C(Cl)Cl" , state whether its growth inhibition is greater than or equal to 80%.
Criterion not met

---

experiment: NCI Yeast Anticancer Drug Screen. Data for the wt1 strain (AID 149);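 note: 0% = growth of vehicle-treated wt1 cultures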; conditions: S. cerevisiae wt1 strain (SPY 50644) growth inhibition; at 100.0 µM
Compounds without any hit were thinned out: in the full panel of roughly 79,000, 15% have a hit. Active and inactive are the calls of the source. Cut-off read from the data, not from the text of the source: active = growth inhibition above about 70%; inactive = the rest.
Respond using exactly one of the listed classes: active, inactive

O=C(O)/C=C\C(=O)NNc1ccc(Br)cc1	active
O=S(=O)(O)CC[S][Sn]([S]CCS(=O)(=O)O)([c]1ccccc1)[c]1ccccc1	active
Oc1ccc(Cc2nccc3cc(O)c(O)cc23)cc1O	inactive
COc1ccc2c(Cc3c4ccccc4cc4ccccc34)cncc2c1O	active

Look up the recorded call for "CNC(=O)OCc1c(COC(=O)NC)c(C)n(-c2ccc(Cl)c(Cl)c2)c1C" in this test.
active

In this assay, the call recorded for "COc1ccc2cc(CN3CCC(C4CCN(Cc5ccc6cc(OC)ccc6c5)CC4)CC3)ccc2c1" was what?
active

State the result this test recorded for NCC(O)CSCc1ccc(Cl)cc1 (stereo unspecified) .
inactive

Which outcome was assigned to Cc1nc2ccc(Br)cc2c(=O)n1-c1ccc(NC2OCC(O)C(O)C2O)cc1 (stereo unspecified) in this test?
active

Test call, this compound: "N=C(N)c1ccc(N=Nc2c(O)ccc3c2[nH]c2ccccc23)cc1"
active

Could you check what this test reported for "BrC/C=C/C[P+](c1ccccc1)(c1ccccc1)c1ccccc1" ?
active

Record lookup: outcome of this test for O=C1OC(/C=C/c2ccccc2)Sc2ccccc21 (stereo unspecified) ?
inactive

---

assay: NCI Yeast Anticancer Drug Screen. Data for the CLN2oe strain (AID 163);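 note: 0% = growth of vehicle-only control cultures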; conditions: S. cerevisiae CLN2oe strain, at 3.7 µM, active compounds read high
About 79,000 compounds went through this panel and 15% of them were active in at least one assay; those are over-represented in the sample as a whole.
reported.metric: growth inhibition (%)
Give your result in % as a bare value.

Use the examples below as a reference point.
Cc1ccc(N(C=O)c2c([N+](=O)[O-])cc([N+](=O)[O-])c3c2=[N+]([O-])CN=3)cc1	8
CN(C)CCNC(=O)c1cccc2nc3c(ccc4ccccc43)nc12	-1
CN1CCN(c2ccc3nc(-c4ccc5nc(-c6ccc(O)cc6)[nH]c5c4)[nH]c3c2)CC1	6

Please indicate growth inhibition recorded for "O=C1c2ccc(O)cc2C(=O)c2c(O)ccc(O)c21"
21

Tell me measured growth inhibition for O=C1c2ccccc2-c2ccc(NC(=O)C3CCCCC3C(=O)O)cc21 (stereo unspecified) please.
-5

Quote growth inhibition reported for "CN(C)CCNC(=O)c1cccc2nc3c4ccccc4c4ccccc4c3nc12" please.
-3

// fetch growth inhibition given entry "CN(Cc1cccc2ccccc12)Cc1cccc2ccccc12"
-6

Assign growth inhibition to the following record: "O=C1C(Br)=CC(Br)(Br)C=C1Br"
18

Return growth inhibition (reported value) for this molecule: CC1(C)CC(=O)C(C(CC(c2ccccc2)c2cc3c(cc2O)OCO3)C2=C(O)CC(C)(C)CC2=O)=C(O)C1 (stereo unspecified)
-3

Indicate the recorded growth inhibition value for this molecule: "CCCC#CCOC(=O)c1cc([N+](=O)[O-])cc([N+](=O)[O-])c1"
11

Look up and state reported growth inhibition for "COc1ccc(C(=O)NCCN(C)C)c2nc3ccccc3cc12"
26

The reported numbers originate from PubChem BioAssay (NCI).
